molecular target: Full-length glucokinase (beta cell isoform) (Homo sapiens); construct: Full-length glucokinase (beta cell isoform) was His-tagged at N-terminus; His tag (N); made in house; assay: Glucokinase activation assay (PK/LDH-coupled, NADH depletion at 340 nm); format: biochemical; conditions: 5 mM glucose, 2.5 mM ATP, pH 7.1, room temperature; fitted % max activation; values given as a range where N>1; read-out: Maximum Activation
Reported Emax values for a set of compounds
OUTCOME MEASURE: Emax

                         structure_notation  reported_measurement
0  Cc1ccc(NC(=O)[C@H](CC2CCCC2)n2cnc(C(F)(F)F)cc2=O)nc1                   77%
1  O=C(Nc1cnccn1)[C@H](CC1CCCC1)n1cc(C(F)(F)F)ccc1=O           110 to 128%
2  Cn1ccc(NC(=O)[C@H](CC2CCCC2)n2ccc(C(F)(F)F)cc2=O)n1            72 to 106%
3  CC(C)(O)Cn1ccc(NC(=O)[C@H](CC2CCCC2)n2cc(C(F)(F)F)ccc2=O)n1           172 to 194%

* * *

Reported pEC50 values for a set of compounds
biological target: Full-length glucokinase (beta cell isoform) (Homo sapiens, UniProt P35557); construct: Full-length glucokinase (beta cell isoform) was His-tagged at N-terminus; His tag (N); test: Glucokinase activation assay (PK/LDH-coupled, NADH depletion at 340 nm); settings: 5 mM glucose, 2.5 mM ATP, pH 7.1, room temperature; values given as a range where N>1
pEC50: −log10 of the molar value.
OUTCOME MEASURE: pEC50

In [3]: df
Out[3]:
                         structure_notation  outcome_measure  reported_measurement
0  O=C(Nc1ncccn1)[C@H](CC1CCCC1)n1cc(C(F)(F)F)ccc1=O            pEC50          4.68 to 4.87
1  Cc1cnc(NC(=O)[C@H](CC2CCCC2)n2cc(C(F)(F)F)ccc2=O)cn1            pEC50          5.43 to 5.80
2  O=C(Nc1ccncn1)[C@H](CC1CCCC1)n1cc(C(F)(F)F)ccc1=O            pEC50          5.85 to 5.96

* * *

Molecular target: Full-length glucokinase (beta cell isoform) (Homo sapiens, UniProt P35557)
Construct: Full-length glucokinase (beta cell isoform) was His-tagged at N-terminus; His tag (N); made in house
Sequence (P35557 1-465): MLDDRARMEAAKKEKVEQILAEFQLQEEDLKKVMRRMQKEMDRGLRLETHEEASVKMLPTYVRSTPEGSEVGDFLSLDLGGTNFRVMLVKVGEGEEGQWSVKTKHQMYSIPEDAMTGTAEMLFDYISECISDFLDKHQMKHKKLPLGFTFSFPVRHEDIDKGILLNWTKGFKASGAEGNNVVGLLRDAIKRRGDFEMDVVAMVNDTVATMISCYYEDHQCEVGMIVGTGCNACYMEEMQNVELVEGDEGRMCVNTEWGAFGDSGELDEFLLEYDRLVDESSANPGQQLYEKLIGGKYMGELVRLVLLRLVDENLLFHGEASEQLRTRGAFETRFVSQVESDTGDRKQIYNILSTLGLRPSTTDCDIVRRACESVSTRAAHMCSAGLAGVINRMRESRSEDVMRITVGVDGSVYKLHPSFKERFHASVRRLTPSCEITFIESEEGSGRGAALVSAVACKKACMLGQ
Assay: Glucokinase activation assay (PK/LDH-coupled, NADH depletion at 340 nm)
Assay type: biochemical
Details: 5 mM glucose, 2.5 mM ATP, pH 7.1, room temperature; values given as a range where N>1
pEC50: −log10 of the molar value.
OUTCOME MEASURE: pEC50

In [3]: df
Out[3]:
                                    compound  outcome_measure  reported_measurement
 0  CCn1ccc(NC(=O)[C@H](CC2CCCC2)n2cc(C(F)(F)F)ccc2=O)n1 [Example 10]            pEC50          5.68 to 5.82
 1  Cc1ccc(NC(=O)[C@H](CC2CCCC2)n2cc(C(F)(F)F)ccc2=O)nc1 [Example 6]            pEC50          6.10 to 6.70
 2  Cn1ccc(NC(=O)[C@H](CC2CCCC2)n2ccc(C(F)(F)F)cc2=O)n1 [Example 4]            pEC50          4.65 to 5.34
 3  O=C(O)c1ccc(NC(=O)[C@H](CC2CCCC2)n2ccc(C(F)(F)F)cc2=O)nc1 [Example 34]            pEC50          5.57 to 5.74
 4  O=C(Nc1ccc(CO)cn1)[C@H](CC1CCCC1)n1cc(C(F)(F)F)ccc1=O [Example 33]            pEC50          6.30 to 6.52
 5  CC(C)(O)Cn1ccc(NC(=O)[C@H](CC2CCCC2)n2ccc(C(F)(F)F)cc2=O)n1 [Example 32]            pEC50          5.12 to 5.16
 6  Cc1ccc(NC(=O)[C@H](CC2CCCC2)n2ccc(C(F)(F)F)cc2=O)nc1 [Example 3]            pEC50          5.60 to 6.00
 7  Cc1cnc(NC(=O)[C@H](CC2CCOCC2)n2cc(C(F)(F)F)ccc2=O)cn1 [Example 39]            pEC50                < 4.00
 8  Cc1cnc(NC(=O)[C@H](CC2CCCC2)n2cccc(C(F)(F)F)c2=O)cn1 [Example 5]            pEC50                < 4.00
 9  CC(C)(O)Cn1ccc(NC(=O)[C@H](CC2CCCC2)n2cc(C(F)(F)F)ccc2=O)n1 [Example 31]            pEC50          5.70 to 5.96
10  Cn1ccc(NC(=O)[C@H](CC2CCCC2)n2cc(C(F)(F)F)ccc2=O)n1 [Example 16]            pEC50                  5.60
11  Cc1ccc(NC(=O)[C@H](CC2CCCC2)n2cnc(C(F)F)cc2=O)nc1 [Example 36]            pEC50                  5.09
12  O=C(Nc1ccc(C(F)(F)F)cn1)[C@H](CC1CCCC1)n1cc(C(F)(F)F)ccc1=O [Example 17]            pEC50                  6.40
